- ASSAY: Stability in mouse plasma assessed as half life at 1 mM measured for 24 hrs by LC-MS analysis
- Format: ADME, cell-free
Non-standard residues stand in square brackets, D forms with d. Residues, ends and D or L forms follow the SMILES beside them. Phe(4-Br) = N[C@@H](Cc1ccc(Br)cc1)C(=O)O; NMeL = CN[C@@H](CC(C)C)C(=O)O; Nle = CCCC[C@H](N)C(=O)O; Aib = CC(C)(N)C(=O)O
TEST READOUT: half-life at 1000 µM (min)
Answer format: numeric, min implied, no suffix.

// half-life at 1000 µM lookup, key: CCCC[C@H](NC(=O)[C@@H]1CCCN1C(=O)CNC(=O)[C@H](CCCCN)NC(=O)[C@H](Cc1c[nH]cn1)NC(=O)[C@H](CO)NC(=O)[C@H](CC(C)C)N(C)C(=O)[C@H](CCCNC(=N)N)NC(=O)[C@@H]1CCCN1C(=O)[C@H](CCCNC(=N)N)NC(=O)[C@H](CCC(N)=O)NC(=O)[C@H](CCCNC(=N)N)NC(=O)[C@H](CCCNC(=N)N)NC(=O)[C@H](Cc1ccccc1)NC(=O)[C@@H](N)CCCCN)C(=O)NC(C)(C)C(=O)N[C@@H](Cc1ccc(Br)cc1)C(=O)O (H-KFRRQRPR[NMeL]SHKGP[Nle][Aib][Phe(4-Br)]-OH) 59.4

###

- System: Mus musculus
- ASSAY: Hypotensive effect in anesthetized wild type mouse assessed as change in mean arterial blood pressure at 1.4 uM/Kg, iv administered via right jugular vein measured for 60 mins
- Format: functional
- CONDITION CONTEXT: 1 h
Non-standard residues stand in square brackets, D forms with d. Residues, ends and D or L forms follow the SMILES beside them. Phe(4-Br) = N[C@@H](Cc1ccc(Br)cc1)C(=O)O; hArg = N=C(N)NCCCC[C@H](N)C(=O)O; NMeL = CN[C@@H](CC(C)C)C(=O)O; Nle = CCCC[C@H](N)C(=O)O; Aib = CC(C)(N)C(=O)O
TEST READOUT: Activity (mmHg)
Give just the number in mmHg; leave the unit off.

# query: Activity of entry CCCC[C@H](NC(=O)[C@@H]1CCCN1C(=O)CNC(=O)[C@H](CCCCN)NC(=O)[C@H](Cc1c[nH]cn1)NC(=O)[C@H](CO)NC(=O)[C@H](CC(C)C)NC(=O)[C@H](CCCNC(=N)N)NC(=O)[C@@H]1CCCN1C(=O)[C@H](CCCNC(=N)N)NC(=O)[C@H](CCC(N)=O)NC(=O)[C@H](CCCNC(=N)N)NC(=O)[C@H](CCCNC(=N)N)NC(=O)[C@H](Cc1ccccc1)NC(=O)[C@@H](N)CCCCN)C(=O)NC(C)(C)C(=O)N[C@@H](Cc1ccc(Br)cc1)C(=O)O (H-KFRRQRPRLSHKGP[Nle][Aib][Phe(4-Br)]-OH) 10.24

GET /values?readout=Activity&item= CCCC[C@H](NC(=O)[C@@H]1CCCN1C(=O)CNC(=O)[C@H](CCCCN)NC(=O)[C@H](Cc1c[nH]cn1)NC(=O)[C@H](CO)NC(=O)[C@H](CC1CCCCC1)NC(=O)[C@H](CCCNC(=N)N)NC(=O)[C@@H]1CCCN1C(=O)[C@H](CCCNC(=N)N)NC(=O)[C@@H]1CCC(=O)N1)C(=O)NC(C)(C)C(=O)N[C@@H](Cc1ccc(Br)cc1)C(=O)O 0.23

I have this compound here, CCCC[C@H](NC(=O)[C@@H]1CCCN1C(=O)CNC(=O)[C@H](CCCCN)NC(=O)[C@H](Cc1c[nH]cn1)NC(=O)[C@H](CO)NC(=O)[C@H](CC(C)C)NC(=O)[C@H](CCCCNC(=N)N)NC(=O)[C@@H]1CCCN1C(=O)[C@H](CCCNC(=N)N)NC(=O)[C@@H]1CCC(=O)N1)C(=O)NC(C)(C)C(=O)N[C@@H](Cc1ccc(Br)cc1)C(=O)O , and I need its recorded Activity. 26.44

For the compound CCCC[C@H](NC(=O)[C@@H]1CCCN1C(=O)CNC(=O)[C@H](CCCCN)NC(=O)[C@H](Cc1c[nH]cn1)NC(=O)[C@H](CO)NC(=O)[C@H](CC1CCCCC1)NC(=O)[C@H](CCCCNC(=N)N)NC(=O)[C@@H]1CCCN1C(=O)[C@H](CCCNC(=N)N)NC(=O)[C@@H]1CCC(=O)N1)C(=O)NC(C)(C)C(=O)N[C@@H](Cc1ccc(Br)cc1)C(=O)O , what Activity is on record? 15.33

Which Activity reading was recorded for the compound CCCC[C@H](NC(=O)[C@@H]1CCCN1C(=O)CNC(=O)[C@H](CCCCN)NC(=O)[C@H](Cc1c[nH]cn1)NC(=O)[C@H](CO)NC(=O)[C@H](CC(C)C)N(C)C(=O)[C@H](CCCCNC(=N)N)NC(=O)[C@@H]1CCCN1C(=O)[C@H](CCCNC(=N)N)NC(=O)[C@H](CCC(N)=O)NC(=O)[C@H](CCCNC(=N)N)NC(=O)[C@H](CCCNC(=N)N)NC(=O)[C@H](Cc1ccccc1)NC(=O)[C@@H](N)CCCCN)C(=O)NC(C)(C)C(=O)N[C@@H](Cc1ccc(Br)cc1)C(=O)O (H-KFRRQRP[hArg][NMeL]SHKGP[Nle][Aib][Phe(4-Br)]-OH) ? 34.69
